For each entry below, report its pIC50 value.
Target Or System: EGFR V3 (Homo sapiens, UniProt P00533, DELINS30-297G)
Construct: expressed in transfected cells; host or cells: BaF3 (murine pro-B), retroviral pMXs-IRES-Blasticidin
Sequence (P00533 with tags, fused parts or gaps DELINS30-297G): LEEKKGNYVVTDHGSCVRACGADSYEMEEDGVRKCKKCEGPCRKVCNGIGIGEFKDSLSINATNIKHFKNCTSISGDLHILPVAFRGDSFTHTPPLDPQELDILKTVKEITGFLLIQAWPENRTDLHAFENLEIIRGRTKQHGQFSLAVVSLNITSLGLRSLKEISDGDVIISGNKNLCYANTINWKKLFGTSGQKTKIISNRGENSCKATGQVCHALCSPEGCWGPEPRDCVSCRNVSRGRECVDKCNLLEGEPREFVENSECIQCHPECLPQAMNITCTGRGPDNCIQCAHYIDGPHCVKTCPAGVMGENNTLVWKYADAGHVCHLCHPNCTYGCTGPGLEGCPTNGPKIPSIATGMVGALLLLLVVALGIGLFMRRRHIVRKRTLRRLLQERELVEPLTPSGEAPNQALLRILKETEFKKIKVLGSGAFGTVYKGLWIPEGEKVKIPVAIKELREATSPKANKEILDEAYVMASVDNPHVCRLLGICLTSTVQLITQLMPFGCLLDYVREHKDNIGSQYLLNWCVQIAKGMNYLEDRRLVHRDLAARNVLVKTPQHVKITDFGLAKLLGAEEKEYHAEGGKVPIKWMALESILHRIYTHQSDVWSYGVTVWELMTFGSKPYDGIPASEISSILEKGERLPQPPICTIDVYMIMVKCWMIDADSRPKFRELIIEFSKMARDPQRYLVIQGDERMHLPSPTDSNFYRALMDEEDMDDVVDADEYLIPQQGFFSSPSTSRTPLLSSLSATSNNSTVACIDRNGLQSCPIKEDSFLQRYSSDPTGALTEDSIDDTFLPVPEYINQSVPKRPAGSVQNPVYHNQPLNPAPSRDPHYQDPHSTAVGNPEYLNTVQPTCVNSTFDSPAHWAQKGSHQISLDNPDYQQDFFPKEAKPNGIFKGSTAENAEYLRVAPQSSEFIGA
Assay Overview: Activity for inhibiting EGFR (Table A), EGFR V3 (EGFR-Viii)
Type: cell-based
Recorded Conditions: read-out: EGFR V3, potency code (IC50)
pIC50: −log10 of the molar value.

| Compound | pIC50 |
| --- | --- |
| C=CC(=O)Nc1cc2c(Nc3ccc(OCc4ccccn4)c(Cl)c3)ncnc2cc1OCCN1CC2CC1CO2 (stereo not shown) [compound 39] | 7.52 to 7.70 |
| C=CC(=O)Nc1cc2c(Nc3ccc(CC(=O)c4ccccn4)c(Cl)c3)ncnc2cc1O[C@@H]1CCN(C)C1 [compound 121] | 6.70 to 7.00 |
| C=CC(=O)Nc1cc2c(Nc3ccc(OCc4ccccn4)c(Cl)c3)ncnc2cc1OCCCN1CC(OC)C1 [compound 118] | 7.52 to 7.70 |

For each of the compounds below, note its pIC50.
1. C=CC(=O)Nc1cc2c(Nc3ccc(OCc4ccnc(C)c4)c(Cl)c3)ncnc2cc1OCCN1CCOCC1 [compound 142]
2. C=CC(=O)Nc1cc2c(Nc3ccc(OCc4ccccn4)c(Cl)c3)ncnc2cc1OCCN1CCC(O)CC1 [compound 111]

1. 6.70 to 7.00
2. 7.30 to 7.52

Items follow; give pIC50 for each.
1. C=CC(=O)Nc1cc2c(Nc3ccc(OCc4cccc(F)c4)c(Cl)c3)ncnc2cc1O[C@@H]1CCN(C)C1 [compound 141]
2. C=CC(=O)Nc1cc2c(Nc3ccc(OCc4ccccn4)c(Cl)c3)ncnc2cc1OC1CCN(C)C1 (stereo not shown) [compound 16]

1. 6.70 to 7.00
2. 7.52 to 7.70

src = patent US11034672B1
